Molecular target: porcine group 1B PLA2 (pps PLA2) (Sus scrofa, UniProt P00592)
Construct: purchased
Sequence (P00592 23-146): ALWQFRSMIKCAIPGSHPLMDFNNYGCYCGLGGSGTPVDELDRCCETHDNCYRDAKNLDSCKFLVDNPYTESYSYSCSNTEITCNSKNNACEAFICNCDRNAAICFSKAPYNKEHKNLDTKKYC
Test: Fluorimetric PPyrPM assay for group 1B PLA2 inhibition (Example 12)
Type: biochemical
Conditions: porcine pancreas secreted PLA2; read-out: ILYPSA IC50 pps PLA2
Protocol: In this example, a fluorimetric assay procedure was used to evaluate the indole and indole-related compounds of the invention as inhibitors of group 1B phospholipase A2 (PLA2) from human, mouse and porcine. […] In general, this assay used a phosphatidylmethanol substrate with a pyrene fluorophore on the terminal end of the sn-2 fatty acyl chain. […] The effect of a given inhibitor and inhibitor concentration on human, mouse and porcine phospholipase was determined. […]
API: label(entry) gives 1 (yes) if the entry's IC50 is strictly smaller than 80 nM; on equality or larger values it gives 0 (no).

Cc1c(C(=O)C(N)=O)c2c(OC(C(=O)O)C(C)C)cccc2n1Cc1ccccc1 (stereo not shown) :: 1 (yes)
Cc1c(C(=O)C(N)=O)c2c(OCC(=O)O)cccc2n1Cc1ccc(-c2ccccc2)cc1 :: 0 (no)
CCCCCCCCn1c(C)c(C(=O)C(N)=O)c2c(OCC(=O)O)cccc21 :: 1 (yes)
Cc1c(C(=O)C(N)=O)c2c(OCC(=O)O)ccc([N+](=O)[O-])c2n1Cc1ccccc1 :: 1 (yes)
Cc1c(C(=O)C(N)=O)c2c(OCC(=O)O)cccc2n1CCCCCCCCSCCCCSCCCCCCCCn1c(C)c(C(=O)C(N)=O)c2c(OCC(=O)O)cccc21 :: 0 (no)

[ask] API: query returns whether the compound falls strictly under 80 nM in IC50. Query: Cc1c(C(=O)C(N)=O)c2c(OC(CCC(=O)O)C(=O)O)cccc2n1Cc1ccccc1 (stereo not shown)
[reply] 0 (no)

[ask] API: query returns whether the compound falls strictly under 80 nM in IC50. Query: "Cc1c(C(=O)C(N)=O)c2c(OCC(=O)O)ccc(NS(C)(=O)=O)c2n1Cc1ccccc1"
[reply] 0 (no)

[ask] API: query returns whether the compound falls strictly under 80 nM in IC50. Query: "Cc1c(C(=O)C(N)=O)c2c(OCC(=O)O)cccc2n1CCCCCCCCCCCCN(CCCCCCCCCCCCn1c(C)c(C(=O)C(N)=O)c2c(OCC(=O)O)cccc21)Cc1ccccc1"
[reply] 1 (yes)

====

Item-by-item account of IC50
Target: human group 1B PLA2 (hps PLA2) (Homo sapiens)
Construct: made in house; host or cells: E. coli
Assay: Fluorimetric PPyrPM assay for group 1B PLA2 inhibition (Example 12)
Format: biochemical
Settings: human pancreas secreted PLA2; read-out: ILYPSA IC50 hps PLA2
Note: unit µM is implicit; provide only the numeric part.

Illustrative cases are given below, each with its answer.
Cc1c(C(=O)C(N)=O)c2c(OCC(=O)O)cccc2n1CCCCCCCCCCCCNCCCCCCCCCCCCn1c(C)c(C(=O)C(N)=O)c2c(OCC(=O)O)cccc21 :: 0.12
Cc1c(C(=O)C(N)=O)c2c(O)cccc2n1CCCCCCCCCCCCSCCCCCCCCCCCCn1c(C)c(C(=O)C(N)=O)c2c(O)cccc21 :: 1.52
Cc1c(C(=O)C(N)=O)c2c(OCC(=O)O)ccc(NS(C)(=O)=O)c2n1Cc1ccccc1 :: 3.48

For the next question, use this compound.
[ask] Can you look up IC50 on human group 1B PLA2 (hps PLA2) (Homo sapiens) for "Cc1c(C(=O)C(N)=O)c2c(OCC(=O)O)cccc2n1CCCCCCCCCCCCOc1ccc(-c2ccc(OCCCCCCCCCCCCn3c(C)c(C(=O)C(N)=O)c4c(OCC(=O)O)cccc43)cc2)cc1" ?
[reply] 1.25

====

Biological target: porcine group 1B PLA2 (pps PLA2) (Sus scrofa, UniProt P00592)
Construct: purchased
Assay: Fluorimetric PPyrPM assay for group 1B PLA2 inhibition (Example 12)
Type: biochemical
Conditions: porcine pancreas secreted PLA2; read-out: ILYPSA IC50 pps PLA2
metricName: IC50 (µM)
Note: unit µM is implicit; provide only the numeric part.

Illustrative cases are given below, each with its answer.
Cc1c(C(=O)C(N)=O)c2c(OCC(=O)O)cccc2n1CCCCCCCCCCCCOc1cc(OCCCCCCCCCCCCn2c(C)c(C(=O)C(N)=O)c3c(OCC(=O)O)cccc32)cc(OCCCCCCCCCCCCn2c(C)c(C(=O)C(N)=O)c3c(OCC(=O)O)cccc32)c1 [ILY-V-32] :: 0.09
Cc1c(C(=O)C(N)=O)c2c(OCC(=O)O)cccc2n1CCCCCCCCCCCCSCCCCSCCCCCCCCCCCCn1c(C)c(C(=O)C(N)=O)c2c(OCC(=O)O)cccc21 [ILY-V-25] :: 0.19
Cc1c(C(=O)C(N)=O)c2c(OCC(=O)O)cccc2n1CCCCCCCCCCCCOc1ccc(-c2ccc(OCCCCCCCCCCCCn3c(C)c(C(=O)C(N)=O)c4c(OCC(=O)O)cccc43)cc2)cc1 [ILY-V-36] :: 0.44

For the next question, use this compound.
[ask] GET /values?readout=IC50&item= Cc1c(C(=O)C(N)=O)c2c(OCC(=O)O)ccnc2n1Cc1ccccc1 [ILY-VII-1]
[reply] 0.06

====

Target: human group 1B PLA2 (hps PLA2) (Homo sapiens)
Construct: made in house; host or cells: E. coli
Experiment: Fluorimetric PPyrPM assay for group 1B PLA2 inhibition (Example 12)
Type: biochemical
Conditions: human pancreas secreted PLA2; read-out: ILYPSA IC50 hps PLA2
metricName: IC50 (nM)
Note: unit nM is implicit; provide only the numeric part.

Cc1c(C(=O)C(N)=O)c2c(OCC(=O)O)ccc(Br)c2n1Cc1ccccc1 :: 540

[ask] GET /values?readout=IC50&item= "Cc1c(C(=O)C(N)=O)c2c(OCC(=O)O)ccnc2n1Cc1ccccc1"
[reply] 13700

[ask] GET /values?readout=IC50&item= "Cc1c(C(=O)C(N)=O)c2c(OCC(=O)O)cccc2n1CCCCCCCCCCCCSCCCCSCCCCCCCCCCCCn1c(C)c(C(=O)C(N)=O)c2c(OCC(=O)O)cccc21"
[reply] 150

[ask] GET /values?readout=IC50&item= "Cc1c(C(=O)C(N)=O)c2c(OCC(=O)O)ccc([N+](=O)[O-])c2n1Cc1ccccc1"
[reply] 1290

====

Target: human group 1B PLA2 (hps PLA2) (Homo sapiens, UniProt P04054)
Construct: made in house; host or cells: E. coli
Sequence (P04054 23-148): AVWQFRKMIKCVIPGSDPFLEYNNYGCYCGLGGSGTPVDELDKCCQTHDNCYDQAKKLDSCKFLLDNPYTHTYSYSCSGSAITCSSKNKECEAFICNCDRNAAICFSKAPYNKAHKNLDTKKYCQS
Assay: Fluorimetric PPyrPM assay for group 1B PLA2 inhibition (Example 12)
Type: biochemical
Settings: human pancreas secreted PLA2; read-out: ILYPSA IC50 hps PLA2
Item-by-item account of IC50
Note: unit nM is implicit; provide only the numeric part.

Cc1c(C(=O)C(N)=O)c2c(OC(F)C(N)=O)cccc2n1Cc1ccccc1 (stereo not shown) :: 2600
Cc1c(C(=O)C(N)=O)c2c(OCC(=O)O)cccc2n1CCCCCCCCCCCCN(CCCCCCCCCCCCn1c(C)c(C(=O)C(N)=O)c2c(OCC(=O)O)cccc21)Cc1ccccc1 :: 100
Cc1c(C(=O)C(N)=O)c2c(OCC(=O)O)cccc2n1CCCCCCCCCCCCOc1ccccc1OCCCCCCCCCCCC(=O)O :: 1540
Cc1c(C(=O)C(N)=O)c2c(OCC(=O)O)cccc2n1CCCCCCCCSCCCCCCCCSCCCCCCCCn1c(C)c(C(=O)C(N)=O)c2c(OCC(=O)O)cccc21 :: 540
Cc1c(C(=O)C(N)=O)c2c(OCC(=O)O)cccc2n1CCCCCCCCCCCCSCCCCCCCCSCCCCCCCCCCCCn1c(C)c(C(=O)C(N)=O)c2c(OCC(=O)O)cccc21 :: 240

[ask] GET /values?readout=IC50&item= "CCCCCCCCn1c(C)c(C(=O)C(N)=O)c2c(OCC(=O)O)nccc21"
[reply] 270

[ask] GET /values?readout=IC50&item= "Cc1c(C(=O)C(N)=O)c2c(OCC(=O)NS(C)(=O)=O)cccc2n1Cc1ccccc1"
[reply] 1160

[ask] GET /values?readout=IC50&item= "Cc1c(C(=O)C(N)=O)c2c(OCC(=O)O)cccc2n1CCCCCCCCCCCCOc1ccc(C(C)(C)c2ccc(OCCCCCCCCCCCCn3c(C)c(C(=O)C(N)=O)c4c(OCC(=O)O)cccc43)cc2)cc1"
[reply] 430

[ask] GET /values?readout=IC50&item= "Cc1c(C(=O)C(N)=O)c2c(OCC(=O)O)cccc2n1CCCCCCCCSCCCCSCCCCCCCCn1c(C)c(C(=O)C(N)=O)c2c(OCC(=O)O)cccc21"
[reply] 2160

[ask] GET /values?readout=IC50&item= Cc1c(C(=O)C(N)=O)c2c(OC(C(=O)O)C(C)C)cccc2n1Cc1ccccc1 (stereo not shown)
[reply] 70

[ask] GET /values?readout=IC50&item= "Cc1c(C(=O)C(N)=O)c2c(OCC(=O)O)cccc2n1Cc1ccc2ccccc2c1"
[reply] 2110

[ask] GET /values?readout=IC50&item= "Cc1c(C(=O)C(N)=O)c2c(OCC(=O)O)cccc2n1CCCCCCCCCCCCOc1ccccc1-c1ccccc1OCCCCCCCCCCCCn1c(C)c(C(=O)C(N)=O)c2c(OCC(=O)O)cccc21"
[reply] 270

[ask] GET /values?readout=IC50&item= "Cc1c(C(=O)C(N)=O)c2c(OCC(=O)O)cccc2n1CCCCCCCCCCCCSCCCCCCCCCCCCn1c(C)c(C(=O)C(N)=O)c2c(OCC(=O)O)cccc21"
[reply] 460
